biological target: MATE1 (Homo sapiens); experiment: Inhibition of MATE1-mediated creatinine transport; type: cell-based
Sequence (Q96FL8 whole entry): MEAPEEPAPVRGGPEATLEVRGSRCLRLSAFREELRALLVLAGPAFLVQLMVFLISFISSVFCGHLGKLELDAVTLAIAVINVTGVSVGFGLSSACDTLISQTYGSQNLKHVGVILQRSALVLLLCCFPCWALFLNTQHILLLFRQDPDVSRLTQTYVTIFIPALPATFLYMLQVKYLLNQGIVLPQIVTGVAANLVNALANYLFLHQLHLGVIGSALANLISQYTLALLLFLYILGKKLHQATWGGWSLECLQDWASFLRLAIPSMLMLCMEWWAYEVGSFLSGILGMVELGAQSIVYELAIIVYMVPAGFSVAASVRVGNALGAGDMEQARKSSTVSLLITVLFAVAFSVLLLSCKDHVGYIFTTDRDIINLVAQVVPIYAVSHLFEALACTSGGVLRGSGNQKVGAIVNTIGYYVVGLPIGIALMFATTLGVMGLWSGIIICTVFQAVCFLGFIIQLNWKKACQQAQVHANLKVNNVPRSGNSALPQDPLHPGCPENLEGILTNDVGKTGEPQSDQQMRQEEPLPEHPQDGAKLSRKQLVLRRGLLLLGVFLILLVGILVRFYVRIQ
pIC50: −log10 of the molar value.
propertyLabel: pIC50

| compound | number |
| --- | --- |
| CC(C)c1nc(CN(C)C(=O)N[C@@H](CCN2CCOCC2)C(=O)N[C@H](CC[C@H](Cc2ccccc2)NC(=O)OCc2cncs2)Cc2ccccc2)cs1 [Cobicistat, cobicistat] | 6.00 |

---

Collected pIC50 values appear next to each entry.
target: OAT2 (Homo sapiens); experiment: Inhibition of OAT2 transport of 3′,5′-cyclic GMP
Sequence (Q9Y694 whole entry): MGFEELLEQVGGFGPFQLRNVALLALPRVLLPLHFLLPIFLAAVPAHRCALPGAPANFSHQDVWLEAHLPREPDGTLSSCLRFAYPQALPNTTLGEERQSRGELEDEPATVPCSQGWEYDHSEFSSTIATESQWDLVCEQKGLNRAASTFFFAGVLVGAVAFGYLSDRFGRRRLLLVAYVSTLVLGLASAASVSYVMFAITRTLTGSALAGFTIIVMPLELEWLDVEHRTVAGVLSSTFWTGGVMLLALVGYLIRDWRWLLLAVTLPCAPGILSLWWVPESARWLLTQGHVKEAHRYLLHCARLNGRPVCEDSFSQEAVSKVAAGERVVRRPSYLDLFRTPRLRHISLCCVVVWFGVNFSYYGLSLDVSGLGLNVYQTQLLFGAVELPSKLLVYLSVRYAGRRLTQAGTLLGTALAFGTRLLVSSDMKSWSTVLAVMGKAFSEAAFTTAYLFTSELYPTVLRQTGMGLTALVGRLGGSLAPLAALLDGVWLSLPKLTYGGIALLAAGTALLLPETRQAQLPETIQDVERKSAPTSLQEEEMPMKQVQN
pIC50: −log10 of the molar value.
propertyLabel: pIC50

| compound | system | propertyLabel | result |
| --- | --- | --- | --- |
| CN/C(=N/CCSCc1nc[nH]c1C)NC#N | OAT2 (Homo sapiens) | pIC50 | 4.14 |
| C[C@@H]1CCO[C@H]2Cn3cc(C(=O)NCc4ccc(F)cc4F)c(=O)c(O)c3C(=O)N12 | OAT2 (Homo sapiens) | pIC50 | < 4.00 |
| CC(C)c1nc(CN(C)C(=O)N[C@@H](CCN2CCOCC2)C(=O)N[C@H](CC[C@H](Cc2ccccc2)NC(=O)OCc2cncs2)Cc2ccccc2)cs1 [Cobicistat, cobicistat] | OAT2 (Homo sapiens) | pIC50 | < 4.00 |
